Test system: CEM cells HIV-1 protection, formazan growth assay
Assay: NCI AIDS Antiviral Assay
Conditions: measured here: growth of uninfected CEM cells
IC50 by entry:
endpointLabel: IC50

[
  {
    "compound": "COc1ccc2[nH]c3c(c2c1)[C@H]1CCC(C(C)(C)C)C[C@H]1[C@H]1C(=O)N(c2ccccc2)C(=O)[C@@H]31 (stereo partly drawn)",
    "endpointLabel": "IC50",
    "measuredResult": "> 7.94 µM"
  },
  {
    "compound": "O=C1OC(c2ccccc2)=N/C1=C\\c1cccc2ccccc12",
    "endpointLabel": "IC50",
    "measuredResult": "> 120 µM"
  },
  {
    "compound": "N#CCCC1C(C#N)C2CC1C1C3C=CC(C3)C21 (stereo not drawn)",
    "endpointLabel": "IC50",
    "measuredResult": "> 200 µM"
  }
]

###

Test system: CEM cells HIV-1 protection, formazan growth assay
Assay: NCI AIDS Antiviral Assay
Settings: measured here: growth of uninfected CEM cells
Please use TRUE for IC50 under 30 µM and FALSE for everything else, ties included.

[
  {
    "compound": "CN(C)CCN1C(=O)c2ccccc2N(C)c2ccccc21",
    "assignedLabel": "FALSE"
  },
  {
    "compound": "Cn1c(=O)c2c(c3c(c(=O)n(C)c(=O)n3C)n2Cc2ccccc2)n(C)c1=O",
    "assignedLabel": "FALSE"
  },
  {
    "compound": "Cc1ccc(C)n1N1CCOCC1",
    "assignedLabel": "FALSE"
  },
  {
    "compound": "CCC(=O)N/N=C(\\C=C\\c1cccc(O)c1)c1sc(Nc2ccc(C)cc2[N+](=O)[O-])nc1C",
    "assignedLabel": "FALSE"
  },
  {
    "compound": "COC(=O)CC(C(C(C)=O)C(=O)OCc1ccccc1)N1C(=O)OC(c2ccccc2)C1c1ccccc1 (configuration not stated)",
    "assignedLabel": "FALSE"
  },
  {
    "compound": "Cc1ccc(S(=O)(=O)SCC(=O)c2ccc(Br)cc2)cc1",
    "assignedLabel": "FALSE"
  },
  {
    "compound": "O=C(CCC(=O)c1ccc(Cl)cc1)NO",
    "assignedLabel": "FALSE"
  },
  {
    "compound": "CCCc1cc(=O)oc2c3c(c4c(c12)OC(C)(C)CC4)O[C@H](C)C(C)C3=O (some centres not stated)",
    "assignedLabel": "FALSE"
  },
  {
    "compound": "Cc1cccc(/C=N/NC(=S)NCCc2ccccn2)n1",
    "assignedLabel": "TRUE"
  },
  {
    "compound": "COc1ccc2c(c1)C(=O)CC(c1ccccc1OC)O2 (configuration not stated)",
    "assignedLabel": "FALSE"
  },
  {
    "compound": "COc1ccc(/C=C/C(=O)CCN2CCN(CCC(=O)/C=C/c3ccc(OC)cc3)CC2)cc1",
    "assignedLabel": "TRUE"
  },
  {
    "compound": "CC(CN(C)C)OCCn1c2c(c3ccccc31)CCCC2 (configuration not stated)",
    "assignedLabel": "TRUE"
  },
  {
    "compound": "CN1C(=O)C2C(=O)N(Cc3ccccc3)CC(=O)N2c2cccnc21 (configuration not stated)",
    "assignedLabel": "FALSE"
  },
  {
    "compound": "O=C(NC1CCN(Cc2ccccc2)CC1)c1ccc(I)cc1",
    "assignedLabel": "TRUE"
  },
  {
    "compound": "Cc1c(C)c2c(c(N)c1C#N)C(=O)N(OS(=O)(=O)c1ccccc1)C2=O",
    "assignedLabel": "TRUE"
  }
]

Hey, just so you know, these numbers are from PubChem BioAssay AID179.
